- TESTED_ON: K-Ras G12C (Homo sapiens, UniProt P01116, G12C)
- TEST_NAME: Western blot assay for in cell alkylation of K-Ras G12C (HCC1171 cells)
- EXPERIMENTAL_SETUP: 18 hours at 37° C., 7 point dose response
- Sequence (P01116 1-188 isoform P01116-2 G12C): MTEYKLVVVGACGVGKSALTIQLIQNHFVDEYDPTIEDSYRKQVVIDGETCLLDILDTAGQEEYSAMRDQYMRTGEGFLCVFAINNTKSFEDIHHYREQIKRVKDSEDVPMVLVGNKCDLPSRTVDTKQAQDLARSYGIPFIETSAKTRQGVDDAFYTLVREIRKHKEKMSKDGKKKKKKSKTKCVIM
// reported log10(EC50) per item
Answers are given as log10 of EC50 in nM.

C=CC(=O)N1CCN(c2nc(OC[C@H]3COC(=O)N3C)nc3c2CC[C@H](c2cc(O)cc4ccccc24)C3)[C@@H](C)C1 (single isomer, unassigned) [Example 57d]    2.94

Query: Can you share its log10(EC50)? I mean this compound: C=CC(=O)N1CCN(c2ncnc3c2CC[C@H](c2nc(N)cc4ccccc24)C3)CC1 (single isomer, unassigned)
Response: 3.74

Query: So what's the measured log10(EC50) for this one? C=C(F)C(=O)N1CCN(c2nc(OC[C@@H]3CCCN3C)nc3c2CCC(c2cccc4ccccc24)C3)CC1CC#N (single isomer, unassigned) [Example 47c]
Response: 2.65

Query: log10(EC50) lookup needed for C=CC(=O)N1CCN(c2nc(OC[C@@H]3C[C@@H](F)CN3C)nc3c2C[C@H](CC)[C@@H](c2c(F)c(N)cc(C)c2C(F)(F)F)C3)[C@@H](C)C1 (single isomer, unassigned) [Example 37b] , thanks.
Response: 3.00

Query: For the compound CN1CCC[C@H]1COc1nc2c(c(N3CCN(C(=O)/C=C/CF)[C@H](CC#N)C3)n1)CC[C@H](c1cc(O)cc3ccccc13)C2 (single isomer, unassigned) [Example 62b] , what log10(EC50) is on record?
Response: 3.46

Query: Requested field: log10(EC50). Item: C=CC(=O)N1CCN(c2ncnc3c2C[C@@H](C)[C@@H](c2nc(N)cc(C)c2C(F)(F)F)C3)CC1 (single isomer, unassigned)
Response: 4.00

* * *

- TESTED_ON: K-Ras G12C (Homo sapiens, UniProt P01116, G12C)
- TEST_NAME: K-Ras G12C, SOS1, Raf RBD HTRF assay for inhibition of GTP exchange
- EXPERIMENTAL_SETUP: 18 hours preincubation with K-Ras G12C at room temperature; SOS1-mediated GTP exchange
- Sequence (P01116 2-188 isoform P01116-2 G12C): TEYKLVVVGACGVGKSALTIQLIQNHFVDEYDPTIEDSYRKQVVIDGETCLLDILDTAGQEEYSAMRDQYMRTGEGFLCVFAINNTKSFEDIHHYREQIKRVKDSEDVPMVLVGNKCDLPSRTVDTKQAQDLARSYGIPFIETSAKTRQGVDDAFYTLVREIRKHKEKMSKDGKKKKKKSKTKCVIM
READOUT_KIND: pIC50
Reminder that pIC50 means the negative base-10 logarithm of the concentration expressed in mol/L.

Reference set (5 entries):
C=C(F)C(=O)N1CCN(c2nc(OC[C@@H]3CCCN3C)nc3c2CCC(c2cccc4ccccc24)C3)CC1CC#N (single isomer, unassigned) [Example 47a]    6.82
C=C(F)C(=O)N1CCN(c2nc(OC[C@@H]3CCCN3C)nc3c2CC[C@@H](c2cc(O)cc4ccccc24)C3)C[C@@H]1CC#N (single isomer, unassigned) [Example 61e]    7.05
C=CC(=O)N1CCN(c2ncnc3c2CC[C@H](c2cccc4c2CCC4)C3)CC1 (single isomer, unassigned) [Example 6a]    5.64
C=CC(=O)N1CCN(c2nc(OC[C@@H]3CCCN3C)nc3c2CCC2(CCCCC2)C3)CC1 [Example 25a]    5.27
C=CC(=O)N1CCN(c2nc(OC[C@@H]3CCCN3C)nc3c2C[C@H](C)[C@@H](c2nc(N)cc(C)c2C(F)(F)F)C3)[C@@H](C)C1 (single isomer, unassigned) [Example 21a]    5.96

Query: Fill blank: measured pIC50 of the compound C=C(F)C(=O)N1CCN(c2nc(OC[C@@H]3CCCN3C)nc3c2CCC(c2cccc4ccccc24)C3)CC1CC#N (single isomer, unassigned) [Example 47b] is ____.
Response: 5.82

Query: Entry under review: C#CC[C@@H]1CN(c2nc(OC[C@@H]3CCCN3C)nc3c2C[C@H](C)[C@@H](c2cccc4c2CCC4)C3)CCN1C(=O)C=C (single isomer, unassigned) [Example 40c] . Reported pIC50?
Response: 5.92

Query: # get_value(readout='pIC50', item= C=CC(=O)N1CCN(c2nc(OC[C@@H]3C[C@@H](F)CN3C)nc3c2C[C@H](CC)[C@@H](c2c(F)c(N)cc(C)c2C(F)(F)F)C3)[C@@H](C)C1 (single isomer, unassigned) [Example 37b] )
Response: 5.66

Query: # query: pIC50 of entry C=CC(=O)N1C[C@H](C)N(c2nc(OC[C@@H]3CCCN3C)nc3c2C[C@H](C)[C@@H](c2cc(O)cc4ccccc24)C3)[C@@H](C)C1 (single isomer, unassigned) [Example 32b]
Response: 7.25

* * *

- TESTED_ON: K-Ras G12C (Homo sapiens, UniProt P01116, G12C)
- TEST_NAME: K-Ras G12C, SOS1, Raf RBD HTRF assay for inhibition of GTP exchange
- EXPERIMENTAL_SETUP: 18 hours preincubation with K-Ras G12C at room temperature; SOS1-mediated GTP exchange
API: label(entry) gives condition met if the entry's IC50 is strictly smaller than 600 nM; on equality or larger values it gives condition not met.

Query: Consider the compound C=CC(=O)Oc1cc(C2CCc3c(nc(OC[C@@H]4CCCN4C)nc3N3CCN(C(=O)C=C)CC3)C2)c2ccccc2c1 (some centres unmarked) [Example 50a] . Is its IC50 strictly less than 600 nM?
Response: condition met

* * *

- TESTED_ON: K-Ras G12C (Homo sapiens, UniProt P01116, G12C)
- TEST_NAME: Western blot assay for in cell alkylation of K-Ras G12C (HCC1171 cells)
- EXPERIMENTAL_SETUP: 18 hours at 37° C., 7 point dose response
Entries and their pEC50 values follow.
# log scale: pEC50 equals minus log10 of the concentration in mol/L

Below: 8 compounds and their reported pEC50.
C=C(F)C(=O)N1CCN(c2nc(OC[C@@H]3CCCN3C)nc3c2C[C@@H](C)[C@H](c2c(F)c(N)cc(C)c2C(F)(F)F)C3)C[C@@H]1CC#N (single isomer, unassigned) [Example 34c]    7.85
C=C(F)C(=O)N1CCN(c2nc(OC[C@@H]3CCCN3C)nc3c2CC(C)C(c2c(F)c(N)cc(C)c2C(F)(F)F)C3)CC1CC#N (single isomer, unassigned) [Example 34d]    8.17
C=CC(=O)N1CCN(c2nc(OC[C@@H]3CCCN3C)nc3c2C[C@H](C(C)C)[C@@H](c2nc(N)cc(C)c2C(F)(F)F)C3)[C@@H](C)C1 (single isomer, unassigned) [Example 33b]    5.66
C=CC(=O)N1CCN(c2nc(OC[C@@H]3C[C@@H](F)CN3C)nc3c2CC[C@H](c2cc(O)cc4ccccc24)C3)[C@@H](C)C1 (single isomer, unassigned) [Example 31a]    7.89
C=CC(=O)N1CCN(c2nc(OC[C@@H]3CCCN3C)nc3c2C[C@@H](C)[C@H](c2c(C(F)(F)F)ccc(N)c2F)C3)[C@@H](C)C1 (single isomer, unassigned) [Example 23b]    8.18
C=CC(=O)N1CCN(c2ncnc3c2C[C@@H](C)[C@H](c2c(C)ccc4[nH]ncc24)C3)CC1 (single isomer, unassigned) [Example 15a]    6.37
C#CC[C@H]1CN(c2nc(OC[C@@H]3CCCN3C)nc3c2C[C@H](C)[C@@H](c2cccc4c2CCC4)C3)CCN1C(=O)C=C (single isomer, unassigned) [Example 40b]    6.00
CN1CCC[C@H]1COc1nc2c(c(N3CCN(C(=O)/C=C/CF)[C@H](CC#N)C3)n1)CCC(c1cc(O)cc3ccccc13)C2 (single isomer, unassigned) [Example 62d]    8.19

Query: Reported pEC50 for C=CC(=O)N1CCN(c2nc(OC[C@@H]3CCCN3C)nc3c2C[C@H](C)[C@@H](c2cccc4c2CCC4)C3)C[C@@H]1CC#N (single isomer, unassigned) [Example 35c] : what is it?
Response: 7.34

Query: Requested read-out: pEC50. Entry: C=CC(=O)N1CCN(c2nc(OC[C@@H]3C[C@H](F)CN3C)nc3c2CC[C@H](c2cc(O)cc4ccccc24)C3)[C@@H](C)C1 (single isomer, unassigned) [Example 30a]
Response: 7.40

Query: GET /values?readout=pEC50&item= C=CC(=O)N1CCN(c2ncnc3c2CCC(c2nc(N)cc(C)c2C(F)(F)F)C3)CC1 (centres unmarked) [Example 26]
Response: 5.66

Query: Which pEC50 value belongs to CN1CCC[C@H]1COc1nc2c(c(N3CCN(C(=O)/C=C/CF)[C@@H](CC#N)C3)n1)CC[C@@H](c1cc(O)cc3ccccc13)C2 (single isomer, unassigned) [Example 62e] ?
Response: 6.35

* * *

Catalogue of molecules with associated pEC50
- TESTED_ON: K-Ras G12C (Homo sapiens, UniProt P01116, G12C)
- TEST_NAME: Western blot assay for in cell alkylation of K-Ras G12C (HCC1171 cells)
- Assay type: cell-based
- Set-up: endogenous in cells; host or cells: HCC1171
- EXPERIMENTAL_SETUP: 18 hours at 37° C., 7 point dose response
Just so you know, pEC50 here is -log10 of the concentration in molar units; reply with that number alone.

C=CC(=O)N1CCN(c2ncnc3c2CC[C@H](c2nc(N)ccc2C(F)(F)F)C3)CC1 (single isomer, unassigned) [Example 46b]    6.01
C=CC(=O)N1CCN(c2ncnc3c2CC[C@H](c2c(F)c(N)cc(F)c2C(F)(F)F)C3)CC1 (single isomer, unassigned) [Example 13b]    6.16

Next, consider the following molecule.
Query: Looking for the measured pEC50 of C=C(F)C(=O)N1CCN(c2nc(OC[C@@H]3C[C@@H](F)CN3C)nc3c2C[C@H](C)[C@@H](c2c(F)c(N)cc(C)c2C(F)(F)F)C3)C[C@H]1CC#N (single isomer, unassigned) [Example 38a] , can you help?
Response: 6.00
